Origin of measurements: PubChem BioAssay (NCI)

# Test system: NCI-H522 lung
# Experimental Protocol: NCI tumour cell line growth inhibition, 48 h
# binarize TGI: threshold 8 µM inclusive, high side yes (1), low side no (0)

Answered cases to consult:
CCOc1ccc2nc3nc(=O)[nH]c(C)c3c(NC(C)(CO)CO)c2c1 | yes (1)
O=C1C=CC2(O[C@H](C3CCCCC3)[C@@H](C3CCCCC3)O2)C(SC(=O)c2ccccc2)C1 (some centres undefined) | no (0)
O=C1Nc2cccc(Cl)c2/C1=C\c1c(-c2ccccc2)nc2n1CCS2 | yes (1)

Prompt: Determine whether measured TGI meets or exceeds 8 µM for COc1cc(Cc2c(C)cc(OC)c3[nH]c4ccccc4c23)cc2c1[nH]c1ccccc12
Completion: yes (1)

Prompt: Proceed to CCCC(O)c1cn(-c2cccc(S(=O)(=O)O)c2)nn1 (centres undefined)
Completion: yes (1)

Prompt: Proceed to O=C1OC(=O)C23CSCC12C1C=CC3O1 (centres undefined)
Completion: yes (1)

Prompt: Proceed to Clc1ccc(-c2nn3c(COc4cccc(OCc5nnc6sc(-c7ccc(Cl)cc7)nn56)c4)nnc3s2)cc1
Completion: yes (1)

Prompt: Proceed to COc1ccc(Nc2ncnc3ccc(-c4cncc(NS(C)(=O)=O)c4)cc23)cc1Cl
Completion: no (0)
